- Target desc: KDR (Homo sapiens)
- Method description: KDR autophosphorylation ELISA in HUVEC cells
- Type: cell-based
- Set-up: endogenous in cells; host or cells: HUVEC (Lonza #C2519A)
- Study conditions: Table 3 Cellular Activities, VEGF165-stimulated, phospho-KDR ELISA
Structures can show the parent of a compound that is named as a salt.
Task for the reader: assign each of the following compounds its reported IC50.

Prompt: Item COc1cnc2c(Oc3ccc(NC(=O)c4cnc(C)c(-c5cccs5)c4O)cc3)ccnc2c1 [Compound 257] : provide IC50
Response: ≤ 0.1 µM

Prompt: Item COc1cc2nccc(Oc3ccc(NC(=O)c4cnc(C)c(-c5ccc(C6CC6)o5)c4O)cc3F)c2nc1OC [Compound 155A, hydrochloride] : provide IC50
Response: ≤ 0.1 µM

Prompt: Item COc1cc2nccc(Oc3ccc(NC(=O)c4nccn(-c5ccc(F)cn5)c4=O)cc3F)c2nc1OC [Compound 246] : provide IC50
Response: 0.1 to 0.3 µM

Prompt: Item COc1cnc2c(Oc3ccc(NC(=O)c4cnc(C)c(-c5cccs5)c4O)cc3F)ccnc2c1 [Compound 100] : provide IC50
Response: ≤ 0.1 µM

Prompt: Item COc1cnc2c(Oc3ccc(NC(=O)c4cc(C(C)=O)c(C)n(-c5ccoc5)c4=O)cc3F)ccnc2c1 [Compound 240] : provide IC50
Response: 0.3 to 1 µM

Prompt: Item COc1cc2nccc(Oc3ccc(NC(=O)c4c(C)nc(C)c(-c5cc(C)cs5)c4O)cc3F)c2nc1OC [Compound 137] : provide IC50
Response: ≤ 0.1 µM

Prompt: Item COc1cc2nccc(Oc3ccc(NC(=O)c4cc(C(C)=O)c(C)n(-c5ccoc5)c4=O)cc3)c2nc1OC [Compound 239] : provide IC50
Response: 0.3 to 1 µM

Prompt: Item COc1cc2nccc(Oc3ccc(NC(=O)c4cnc(C)c(-c5ccc(C)o5)c4O)cc3F)c2nc1OC [Compound 92] : provide IC50
Response: ≤ 0.1 µM

Prompt: Item COc1cnc2c(Oc3ccc(NC(=O)c4cnc(C)c(-c5cc(C)cs5)c4O)cc3F)ccnc2c1 [Compound 102] : provide IC50
Response: ≤ 0.1 µM

Prompt: Item COc1cc2nccc(Oc3ccc(NC(=O)c4c(C)nc(C)c(-c5cccs5)c4O)cc3F)c2nc1OC [Compound 107] : provide IC50
Response: ≤ 0.1 µM

Prompt: Item COc1cc2nccc(Oc3ccc(NC(=O)c4ccc(C)n(-c5ccnc(OC(C)C)c5)c4=O)cc3F)c2nc1OC [Compound 225] : provide IC50
Response: 0.3 to 1 µM

Prompt: Item COc1cnc2c(Oc3ccc(NC(=O)c4cnc(C)c(-c5ccoc5)c4O)cc3F)ccnc2c1 [Compound 99] : provide IC50
Response: ≤ 0.1 µM

Prompt: Item COc1cnc2c(Oc3ccc(NC(=O)c4cnc(C)c(-c5ccco5)c4O)cc3)ccnc2c1 [Compound 129] : provide IC50
Response: ≤ 0.1 µM

Prompt: Item CCc1ccc(-c2c(C)ncc(C(=O)Nc3ccc(Oc4ccnc5cc(OC)c(OC)nc45)c(F)c3)c2O)o1 [Compound 153] : provide IC50
Response: ≤ 0.1 µM

Prompt: Item CCOCCOCCOc1cc(-n2c(C)ccc(C(=O)Nc3ccc(Oc4ccnc5cc(OC)c(OC)nc45)c(F)c3)c2=O)ccn1 [Compound 224] : provide IC50
Response: ≤ 0.1 µM

Prompt: Item COc1cc2nccc(Oc3ccc(NC(=O)c4ccc(C)n(-c5ccnc(F)c5)c4=O)cc3F)c2nc1OC [Compound 233] : provide IC50
Response: ≤ 0.1 µM

Prompt: Item COc1cc2nccc(Oc3ccc(NC(=O)c4ccc(C)n(-c5ccnc(O)c5)c4=O)cc3F)c2nc1OC [Compound 232] : provide IC50
Response: 0.3 to 1 µM

Prompt: Item COc1cc2nccc(Oc3ccc(NC(=O)c4ccc(C)n(-c5ccc(F)cn5)c4=O)cc3F)c2nc1OC [Compound 43] : provide IC50
Response: ≤ 0.1 µM

Prompt: Item COc1cc2nccc(Oc3ccc(NC(=O)c4cc(C(C)=O)c(C)n(-c5ccco5)c4=O)cc3)c2nc1OC [Compound 237] : provide IC50
Response: 0.3 to 1 µM

Prompt: Item COc1cc2nccc(Oc3ccc(NC(=O)c4c(C)nc(C)c(-c5ccc(C)s5)c4O)cc3F)c2nc1OC [Compound 111] : provide IC50
Response: ≤ 0.1 µM

Prompt: Item COc1cc2nccc(Oc3ccc(NC(=O)c4c(C)ncc(-c5ccc(F)cn5)c4O)cc3F)c2nc1OC [Compound 68] : provide IC50
Response: ≤ 0.1 µM

Prompt: Item COc1ccc2nccc(Oc3ccc(NC(=O)c4ccc(C)n(-c5ccc(F)cn5)c4=O)cc3F)c2n1 [Compound 47] : provide IC50
Response: ≤ 0.1 µM

Prompt: Item COc1cnc2c(Oc3ccc(NC(=O)c4cnc(C)c(-c5ccc(C)o5)c4O)cc3F)ccnc2c1 [Compound 97] : provide IC50
Response: ≤ 0.1 µM

Prompt: Item COCCOc1cc2nccc(Oc3ccc(NC(=O)c4c(C)n(C)c(C)c(-c5cc6ccccc6o5)c4=O)cc3F)c2nc1OC [Compound 263] : provide IC50
Response: 0.3 to 1 µM

Prompt: Item COc1cc2nccc(Oc3ccc(NC(=O)c4cnc(C)c(-c5ccco5)c4O)cc3F)c2cc1OC [Compound 259] : provide IC50
Response: ≤ 0.1 µM

Prompt: Item COc1cc2nccc(Oc3ccc(NC(=O)c4c5n(cc(-c6ccoc6)c4=O)CCOC5)cc3F)c2nc1OC [Compound 306] : provide IC50
Response: 0.3 to 1 µM

Prompt: Item COc1ccc2nccc(Oc3ccc(NC(=O)c4cnc(C)c(-c5cccs5)c4O)cc3F)c2n1 [Compound 128] : provide IC50
Response: ≤ 0.1 µM

Prompt: Item COc1cnc2c(Oc3ccc(NC(=O)c4c(C)ncc(-c5ccccn5)c4O)cc3F)ccnc2c1 [Compound 70] : provide IC50
Response: ≤ 0.1 µM

Prompt: Item COCCOc1cc2nccc(Oc3ccc(NC(=O)c4ccc(C)n(-c5ccc(F)cn5)c4=O)cc3F)c2nc1OC [Compound 50] : provide IC50
Response: ≤ 0.1 µM

====

- Target desc: KDR (Homo sapiens, UniProt P35968)
- Sequence (P35968 20-1356): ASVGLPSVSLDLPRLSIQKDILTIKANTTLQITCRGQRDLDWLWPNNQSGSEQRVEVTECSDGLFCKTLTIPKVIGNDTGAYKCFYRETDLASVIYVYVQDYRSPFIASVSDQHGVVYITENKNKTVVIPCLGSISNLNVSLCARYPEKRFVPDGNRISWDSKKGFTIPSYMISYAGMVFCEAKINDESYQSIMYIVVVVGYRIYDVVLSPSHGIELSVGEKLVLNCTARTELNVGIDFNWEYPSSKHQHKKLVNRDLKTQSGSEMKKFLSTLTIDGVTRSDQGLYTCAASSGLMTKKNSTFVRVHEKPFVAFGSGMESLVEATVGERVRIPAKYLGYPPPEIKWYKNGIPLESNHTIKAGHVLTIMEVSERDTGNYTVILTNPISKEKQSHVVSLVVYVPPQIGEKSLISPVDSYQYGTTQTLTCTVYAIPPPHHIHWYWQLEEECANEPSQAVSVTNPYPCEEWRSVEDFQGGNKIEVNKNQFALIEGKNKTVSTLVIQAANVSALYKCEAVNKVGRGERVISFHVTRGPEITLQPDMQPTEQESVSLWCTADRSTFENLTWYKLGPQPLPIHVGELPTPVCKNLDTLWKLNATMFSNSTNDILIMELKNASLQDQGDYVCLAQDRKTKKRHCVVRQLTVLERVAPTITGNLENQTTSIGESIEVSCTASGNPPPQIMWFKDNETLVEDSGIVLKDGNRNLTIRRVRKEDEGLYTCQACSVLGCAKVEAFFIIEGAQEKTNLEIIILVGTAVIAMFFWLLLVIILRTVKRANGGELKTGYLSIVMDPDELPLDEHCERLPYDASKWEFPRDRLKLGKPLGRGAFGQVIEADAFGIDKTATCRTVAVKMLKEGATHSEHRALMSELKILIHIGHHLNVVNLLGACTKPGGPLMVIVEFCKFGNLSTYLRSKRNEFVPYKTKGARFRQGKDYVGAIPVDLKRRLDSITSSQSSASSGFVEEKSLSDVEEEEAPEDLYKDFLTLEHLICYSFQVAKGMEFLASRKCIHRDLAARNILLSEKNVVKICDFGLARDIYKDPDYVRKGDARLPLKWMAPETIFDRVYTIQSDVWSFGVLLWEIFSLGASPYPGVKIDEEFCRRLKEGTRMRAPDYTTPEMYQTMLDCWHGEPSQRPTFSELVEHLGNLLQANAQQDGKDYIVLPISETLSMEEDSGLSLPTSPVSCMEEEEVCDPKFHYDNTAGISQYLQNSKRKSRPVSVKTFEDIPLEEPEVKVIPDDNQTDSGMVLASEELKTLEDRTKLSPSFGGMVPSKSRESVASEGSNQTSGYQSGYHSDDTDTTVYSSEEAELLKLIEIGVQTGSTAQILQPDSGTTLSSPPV
- Method description: KDR autophosphorylation ELISA in HUVEC cells
- Format: cell-based
- Design: endogenous in cells; host or cells: HUVEC (Lonza #C2519A)
- Study conditions: Table 3 Cellular Activities, VEGF165-stimulated, phospho-KDR ELISA
- Procedure: Human umbilical vein endothelial cells or HUVEC (Lonza #C2519A) were seeded at 2×10^4 cells/well onto 96-well plates (Corning #3904), in EGM-2 growth medium (Lonza #CC-3162) containing 1% Penicillin Streptomycin (Thermo Fisher #15140-122). […] IC50 values were calculated by nonlinear regression analysis using a 4-parameter logistic curve fit in ActivityBase XE (IDBS).
pIC50: −log10 of the molar value.
Reported metric: pIC50

Prompt: # return pIC50 for COc1cc2nccc(Oc3ccc(NC(=O)c4cnc(C)c(-c5ccc(C)s5)c4O)cc3F)c2nc1OC [Compound 94] , test system: KDR (Homo sapiens, UniProt P35968)
Response: ≥ 7.00

Prompt: # return pIC50 for COc1cc2nccc(Oc3ccc(NC(=O)c4cnc(C)c(-c5cc(C)cs5)c4O)cc3F)c2nc1OC [Compound 91] , test system: KDR (Homo sapiens, UniProt P35968)
Response: ≥ 7.00

Prompt: # return pIC50 for COc1cnc2c(Oc3ccc(NC(=O)c4cn(CCF)c(C)c(-c5ccc(C)s5)c4=O)cc3F)ccnc2c1 [Compound 329] , test system: KDR (Homo sapiens, UniProt P35968)
Response: 6.00 to 6.52

Prompt: # return pIC50 for COc1cc2nccc(Oc3ccc(NC(=O)c4cc(Br)c(C)n(-c5ccc(F)cn5)c4=O)cc3F)c2nc1OC [Compound 55] , test system: KDR (Homo sapiens, UniProt P35968)
Response: 6.00 to 6.52

====

Task for the reader: assign each of the following compounds its reported IC50.
- Target desc: AXL (Homo sapiens)
- Construct: endogenous in cells; host or cells: A-172 glioblastoma cells (ATCC #CRL-1620)
- Sequence (P30530 26-894): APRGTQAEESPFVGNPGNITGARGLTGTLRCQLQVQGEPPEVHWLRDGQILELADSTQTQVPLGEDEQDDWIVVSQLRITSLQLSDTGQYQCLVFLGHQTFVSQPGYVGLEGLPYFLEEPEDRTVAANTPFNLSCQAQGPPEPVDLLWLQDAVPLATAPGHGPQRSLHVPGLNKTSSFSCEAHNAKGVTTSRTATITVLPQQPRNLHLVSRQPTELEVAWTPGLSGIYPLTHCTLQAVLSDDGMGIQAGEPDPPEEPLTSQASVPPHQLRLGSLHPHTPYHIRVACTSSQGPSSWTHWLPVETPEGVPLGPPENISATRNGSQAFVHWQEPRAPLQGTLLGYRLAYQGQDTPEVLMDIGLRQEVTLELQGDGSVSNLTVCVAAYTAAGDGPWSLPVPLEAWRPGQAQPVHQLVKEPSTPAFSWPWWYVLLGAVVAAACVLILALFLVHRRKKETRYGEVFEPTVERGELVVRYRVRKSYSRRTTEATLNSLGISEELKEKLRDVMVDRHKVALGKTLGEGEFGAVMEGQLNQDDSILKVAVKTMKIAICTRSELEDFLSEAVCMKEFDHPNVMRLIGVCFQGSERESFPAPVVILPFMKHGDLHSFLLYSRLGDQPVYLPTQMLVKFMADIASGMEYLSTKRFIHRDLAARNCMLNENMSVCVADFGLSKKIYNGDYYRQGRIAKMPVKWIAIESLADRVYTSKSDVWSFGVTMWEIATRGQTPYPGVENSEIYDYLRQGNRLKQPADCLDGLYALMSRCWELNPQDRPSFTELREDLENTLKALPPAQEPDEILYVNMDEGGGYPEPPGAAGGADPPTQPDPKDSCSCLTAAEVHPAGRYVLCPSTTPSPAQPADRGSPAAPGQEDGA
- Method description: AXL autophosphorylation ELISA in A-172 cells
- Type: cell-based
- Study conditions: Table 3 Cellular Activities, Gas6-stimulated, phospho-AXL ELISA
Where a name gives a salt, the structure may show the parent alone.

Prompt: Item COc1cnc2c(Oc3ccc(NC(=O)c4cnc(C)c(-c5ccc(C)o5)c4O)cc3F)ccnc2c1 : provide IC50
Response: ≤ 0.1 µM

Prompt: Item COc1cc2nccc(Oc3ccc(NC(=O)c4cccn(-c5ccnc(O)c5)c4=O)cc3F)c2nc1OC [Compound 248, hydrochloride] : provide IC50
Response: 0.3 to 1 µM

Prompt: Item COc1cc2nccc(Oc3ccc(NC(=O)c4c(C)ncc(-c5ccc(C)o5)c4O)cc3F)c2nc1OC : provide IC50
Response: ≤ 0.1 µM

Prompt: Item COc1cc2c(Oc3ccc(NC(=O)c4c(C)ncc(-c5ccccn5)c4O)cc3F)ccnc2cn1 : provide IC50
Response: ≤ 0.1 µM
